# Measured on: Muscarinic acetylcholine receptor (Rattus norvegicus) (UniProt P08482+P08483+P08485+P08911+P10980)
Items are presented alongside their recorded K app.

{"columns": ["Compound", "K app"],
 "data": [
  ["Cc1noc(C2=CCCN(C)C2)n1", "0.0046 µM"],
  ["c1ccc(Cc2noc(C3CN4CCC3CC4)n2)cc1 (stereo not given)", "0.021 µM"],
  ["OC(c1ccccc1)(c1ccccc1)c1noc(C2CN3CCC2CC3)n1 (stereo not given)", "6.7e-05 µM"],
  ["Cc1nc(C2CN3CCC2CC3)no1 (stereo not given)", "0.054 µM"],
  ["Cc1coc(C2CN3CCC2CC3)c1 (stereo not given)", "0.057 µM"],
  ["Cc1ccc(C2CN3CCC2CC3)o1 (stereo not given)", "0.013 µM"],
  ["Brc1noc(C2CN3CCC2CC3)n1 (stereo not given)", "0.0011 µM"],
  ["c1coc(C2CN3CCC2CC3)n1 (stereo not given)", "0.038 µM"],
  ["COC(=O)C1CN2CCC1CC2 (stereo not given)", "0.023 µM"],
  ["Cc1cc(C2CN3CCC2CC3)on1 (stereo not given)", "0.036 µM"],
  ["Nc1noc(C2CN3CCC2CC3)n1 (stereo not given)", "0.0005 µM"],
  ["C[N+]12CCC(CC1)C(c1nc(N)no1)C2 (stereo not given)", "0.079 µM"],
  ["Cc1noc(C2=CN3CCC2CC3)n1", "0.4 µM"],
  ["Cc1nnc(C2CN3CCC2CC3)o1 (stereo not given)", "0.06 µM"],
  ["N#Cc1noc(C2CN3CCC2CC3)n1 (stereo not given)", "0.043 µM"]
]}
